Source listed as PubChem BioAssay.

The compounds listed here are annotated with their inhibition.
- Tested on: transactivating tegument protein VP16 (Human herpesvirus 1), Gal4-VP16 luciferase reporter
- Assay Name: VP16 transactivation inhibitors, counter-screen for SRC3 inhibitor project, cell-based, luminescence, high throughput (AID 588794)
- Experimental Context: mammalian cells, VP16-driven luciferase reporter luminescence; at 3.6 µM; stronger effect = higher value
Active and inactive are the calls of the source. No stated cut-off is given here; in the data, active means inhibition above about 30%; inactive means the rest.

// below: answered compounds
Compound | inhibition
CCOc1ccc(N(CC)C(=O)Cc2c(C(=O)O)n(C)c3ccccc23)cc1 | 7.58% (inactive)
COc1ccc(C2=Nn3c([n+](C)c4ccccc43)SC2)cc1 | 68.3% (active)
O=C(OCCC12CC3CC(CC(C3)C1)C2)c1ccc(NCc2cc(O)ccc2O)cc1 | 25.4% (inactive)
OCCNCCOc1ccc(Cl)c(Cl)c1 | 2.08% (inactive)
O=C(NC1CCCCCCC1)C1c2ccccc2C(=O)N1Cc1cccs1 (stereo not drawn) | 14.6% (inactive)

Now consider the entry below.
Task: Need inhibition of CCCCc1nc2ccccc2c(N)c1CCC (tested in a mixture with another compound) , thanks.
Output: 9.99% (inactive)
